- Target Or Test System: Muscarinic acetylcholine receptor M2 (Homo sapiens) (UniProt P08172)
- Sequence (whole entry): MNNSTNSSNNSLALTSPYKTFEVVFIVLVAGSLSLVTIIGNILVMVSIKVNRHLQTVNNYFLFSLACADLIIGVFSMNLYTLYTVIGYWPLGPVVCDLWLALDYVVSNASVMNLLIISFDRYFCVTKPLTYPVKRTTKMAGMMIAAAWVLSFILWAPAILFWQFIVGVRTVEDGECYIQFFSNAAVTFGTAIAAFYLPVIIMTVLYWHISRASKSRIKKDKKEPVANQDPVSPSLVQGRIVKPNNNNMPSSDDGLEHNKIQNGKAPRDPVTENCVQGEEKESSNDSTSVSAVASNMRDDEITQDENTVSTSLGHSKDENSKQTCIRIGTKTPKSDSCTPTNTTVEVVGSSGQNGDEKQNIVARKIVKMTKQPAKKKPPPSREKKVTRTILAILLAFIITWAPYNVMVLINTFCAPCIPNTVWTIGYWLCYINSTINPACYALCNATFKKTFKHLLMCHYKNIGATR
- Test Description: Antagonist activity at recombinant human M2 receptor expressed in CHO cells co-expressing Gqi5 by calcium mobilization assay relative to acetylcholine
- Type: functional, cell-based
Listing of entries alongside the reported Emin.

Look over these answered cases.
Smiles Input: O=C(C1CCN(c2cc(Oc3ccccc3F)ncn2)CC1)N1CCc2ccccc2C1
Test Value: < 6%

Smiles Input: O=C(C1CCN(c2cc(Oc3ccc(F)cc3F)ncn2)CC1)N1CCc2ccccc2C1
Test Value: < 6%

Smiles Input: O=C(C1CCN(c2cc(Oc3ccc(Cl)cc3)ncn2)CC1)N1CCc2ccccc2C1
Test Value: < 6%

# evaluate next
## Input Need Emin, item `O=C(C1CCN(c2cc(Oc3ccc(F)cc3F)ncn2)CC1)N1Cc2ccccc2C1`
## Output 8.7%
